Measured mass density values are reported for all entries that follow.
# condition-label: 283.15 K; 100 kPa; Liquid
measured-attribute: mass density (kg/m3)

compound="CCCCCCCCCCO [decan-1-ol]" measured_attribute="mass density" recorded_measurement=836.6
compound="CCCCCO [pentan-1-ol]" measured_attribute="mass density" recorded_measurement=822.1
compound="CCCCCCCCCO [nonan-1-ol]" measured_attribute="mass density" recorded_measurement=835
compound="CCCCCCCCO [octan-1-ol]" measured_attribute="mass density" recorded_measurement=832.1
compound="CCCCCCCO [heptan-1-ol]" measured_attribute="mass density" recorded_measurement=829.6
compound="CCCCO [butan-1-ol]" measured_attribute="mass density" recorded_measurement=817.3
compound="CCO [ethanol]" measured_attribute="mass density" recorded_measurement=798
